Hey, just so you know, these numbers are from patent US20190309034A1.

# STUDY_TARGET: Recombinant soluble 60-mer human BAFF (His-HuBAFF 134-285) (human, UniProt Q9Y275 134-285)
# ASSAY_REMARKS: cell-based or functional assay
For each record, write down the corresponding Soluble 60-mer huBAFF (4 pM) Neutralization IC90.
Express it in pM; write the number only.

Ask: Fill blank: measured Soluble 60-mer huBAFF (4 pM) Neutralization IC90 of the binder 443C11A12 (antibody, V domains shown) VH: EVQLQQSGPELVKPGASVKMSCTASGYTFTSYVIHWMKQKPGQGLEWIGYLHRNNDGTKYNEKFKVKATLTSDESSNTAYMELSSLTSEDSAVYYCARGDYSNYFYWYFDVWGAGTTVSVSS VL: DIKMTPSPSSMYASLGERVTITCKASQDINSYLSWFQQKPGKSPKTLIYRANRLVDGVPSRFSGSGSGQDYSLTISSLEYEDMGIYYCLQYDEFPYTSGGGTKLEIK is ____.
Reply: 30

Ask: Fill blank: measured Soluble 60-mer huBAFF (4 pM) Neutralization IC90 of the binder 352G11A10 (antibody, V domains shown) VH: QVQLQQSGPELVKPGGSVRISCKASGYSLISYYIHWVKQRPGQGLEWIGLTFPGSGNSKFIEKFKGKATLTADTSSNTAYIQLSSLTSEDSAVYYCTRGDFGNYLAYWYFDVWGTGTTVTVSS VL: DIKMTQSPSSIYASLGERVTITCKASQDIHSYLSWFQQKPGKSPKTLMYRTNRLVDGVPSRFSGSGSGQDYSLTIRSLEYEDMGNYYCLQYDEFPYTFGGGAKLEVK is ____.
Reply: 90
